Target: BRAF (Homo sapiens, UniProt P15056)
readout-label: Kd

Request: Read off the recorded Kd for CCN1CCN(c2ccc(Nc3ncnc(N(C)C(=O)Nc4c(Cl)c(OC)c(Cl)c(OC)c4Cl)n3)cc2)CC1 [MPT0L145]
Result: > 10 µM

###

Molecular target: FGFR3(K650E) (Homo sapiens, UniProt P22607, K650E)
Sequence (P22607 23-806 K650E): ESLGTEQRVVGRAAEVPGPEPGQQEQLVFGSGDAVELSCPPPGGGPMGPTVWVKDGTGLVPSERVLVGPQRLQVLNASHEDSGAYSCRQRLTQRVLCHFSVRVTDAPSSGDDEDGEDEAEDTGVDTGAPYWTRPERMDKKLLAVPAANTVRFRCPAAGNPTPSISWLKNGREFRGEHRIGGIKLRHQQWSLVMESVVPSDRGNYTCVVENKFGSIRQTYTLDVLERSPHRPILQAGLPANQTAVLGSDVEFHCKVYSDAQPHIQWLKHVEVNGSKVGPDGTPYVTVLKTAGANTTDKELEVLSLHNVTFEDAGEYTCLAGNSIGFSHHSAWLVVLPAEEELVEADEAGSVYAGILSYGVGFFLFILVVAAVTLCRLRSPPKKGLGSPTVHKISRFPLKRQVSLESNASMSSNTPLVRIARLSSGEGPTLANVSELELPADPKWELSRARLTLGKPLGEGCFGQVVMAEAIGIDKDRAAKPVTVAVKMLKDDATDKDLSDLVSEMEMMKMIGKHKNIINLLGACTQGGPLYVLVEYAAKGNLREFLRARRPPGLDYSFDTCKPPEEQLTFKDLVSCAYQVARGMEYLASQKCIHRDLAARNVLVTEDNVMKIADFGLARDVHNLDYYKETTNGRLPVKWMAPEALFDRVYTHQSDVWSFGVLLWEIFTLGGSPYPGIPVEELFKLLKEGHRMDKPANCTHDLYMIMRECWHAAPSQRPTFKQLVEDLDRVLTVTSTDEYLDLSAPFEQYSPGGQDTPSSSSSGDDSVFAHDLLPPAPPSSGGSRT
Assay: Kinase binding assay (Kd), mutant FGFR3
readout-label: pKd
pKd is defined as minus the log10 of a concentration measured in mol/L.

Request: For the compound `CCN1CCN(c2ccc(Nc3ncnc(N(C)C(=O)Nc4c(Cl)c(OC)c(Cl)c(OC)c4Cl)n3)cc2)CC1` , report pKd.
Result: 6.62

###

Molecular target: VEGFR2 (Homo sapiens)
Construct: made in house; host or cells: E. coli BL21-derived host (T7 phage) or HEK-293
Sequence (P35968 20-1356): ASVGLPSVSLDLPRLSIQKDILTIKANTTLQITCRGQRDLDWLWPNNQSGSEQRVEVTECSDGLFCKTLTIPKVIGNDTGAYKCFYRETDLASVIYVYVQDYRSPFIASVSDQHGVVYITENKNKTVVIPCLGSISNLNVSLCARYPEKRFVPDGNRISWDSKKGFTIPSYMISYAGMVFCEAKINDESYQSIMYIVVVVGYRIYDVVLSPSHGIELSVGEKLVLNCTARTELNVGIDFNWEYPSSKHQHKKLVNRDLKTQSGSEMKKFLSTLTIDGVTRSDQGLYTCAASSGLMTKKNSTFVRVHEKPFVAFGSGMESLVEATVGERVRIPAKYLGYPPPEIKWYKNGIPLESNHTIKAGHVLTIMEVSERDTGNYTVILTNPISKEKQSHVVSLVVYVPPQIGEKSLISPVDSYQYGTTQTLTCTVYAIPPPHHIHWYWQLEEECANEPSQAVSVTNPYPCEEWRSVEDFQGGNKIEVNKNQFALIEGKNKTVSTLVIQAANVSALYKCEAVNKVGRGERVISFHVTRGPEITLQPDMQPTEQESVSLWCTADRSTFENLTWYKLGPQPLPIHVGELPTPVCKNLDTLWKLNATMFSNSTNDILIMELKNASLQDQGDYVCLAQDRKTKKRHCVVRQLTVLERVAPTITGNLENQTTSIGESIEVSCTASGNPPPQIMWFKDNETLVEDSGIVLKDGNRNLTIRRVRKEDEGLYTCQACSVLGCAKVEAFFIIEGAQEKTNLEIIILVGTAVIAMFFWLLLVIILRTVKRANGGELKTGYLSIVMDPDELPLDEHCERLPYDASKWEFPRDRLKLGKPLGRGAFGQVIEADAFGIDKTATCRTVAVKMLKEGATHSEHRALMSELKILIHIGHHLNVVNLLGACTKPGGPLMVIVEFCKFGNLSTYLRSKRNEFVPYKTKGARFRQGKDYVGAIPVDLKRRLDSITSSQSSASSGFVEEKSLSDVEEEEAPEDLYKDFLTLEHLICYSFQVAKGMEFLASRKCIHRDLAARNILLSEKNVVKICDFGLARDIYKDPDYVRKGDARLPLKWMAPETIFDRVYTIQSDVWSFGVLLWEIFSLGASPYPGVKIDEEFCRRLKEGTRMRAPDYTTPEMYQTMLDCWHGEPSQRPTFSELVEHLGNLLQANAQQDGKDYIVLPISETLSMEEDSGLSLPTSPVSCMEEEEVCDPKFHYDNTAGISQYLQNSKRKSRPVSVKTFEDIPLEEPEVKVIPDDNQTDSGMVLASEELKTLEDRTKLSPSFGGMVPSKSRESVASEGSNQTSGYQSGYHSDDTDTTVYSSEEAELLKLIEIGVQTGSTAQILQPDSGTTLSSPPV
Test: Kinase binding assay (Kd)
readout-label: Kd (µM)
# output: bare number, implied unit µM

Request: Provide measured Kd value, entry: `CCN1CCN(c2ccc(Nc3ncnc(N(C)C(=O)Nc4c(Cl)c(OC)c(Cl)c(OC)c4Cl)n3)cc2)CC1`
Result: 3.1

###

Target: UniProtKB P16234
Sequence (P16234 24-1089): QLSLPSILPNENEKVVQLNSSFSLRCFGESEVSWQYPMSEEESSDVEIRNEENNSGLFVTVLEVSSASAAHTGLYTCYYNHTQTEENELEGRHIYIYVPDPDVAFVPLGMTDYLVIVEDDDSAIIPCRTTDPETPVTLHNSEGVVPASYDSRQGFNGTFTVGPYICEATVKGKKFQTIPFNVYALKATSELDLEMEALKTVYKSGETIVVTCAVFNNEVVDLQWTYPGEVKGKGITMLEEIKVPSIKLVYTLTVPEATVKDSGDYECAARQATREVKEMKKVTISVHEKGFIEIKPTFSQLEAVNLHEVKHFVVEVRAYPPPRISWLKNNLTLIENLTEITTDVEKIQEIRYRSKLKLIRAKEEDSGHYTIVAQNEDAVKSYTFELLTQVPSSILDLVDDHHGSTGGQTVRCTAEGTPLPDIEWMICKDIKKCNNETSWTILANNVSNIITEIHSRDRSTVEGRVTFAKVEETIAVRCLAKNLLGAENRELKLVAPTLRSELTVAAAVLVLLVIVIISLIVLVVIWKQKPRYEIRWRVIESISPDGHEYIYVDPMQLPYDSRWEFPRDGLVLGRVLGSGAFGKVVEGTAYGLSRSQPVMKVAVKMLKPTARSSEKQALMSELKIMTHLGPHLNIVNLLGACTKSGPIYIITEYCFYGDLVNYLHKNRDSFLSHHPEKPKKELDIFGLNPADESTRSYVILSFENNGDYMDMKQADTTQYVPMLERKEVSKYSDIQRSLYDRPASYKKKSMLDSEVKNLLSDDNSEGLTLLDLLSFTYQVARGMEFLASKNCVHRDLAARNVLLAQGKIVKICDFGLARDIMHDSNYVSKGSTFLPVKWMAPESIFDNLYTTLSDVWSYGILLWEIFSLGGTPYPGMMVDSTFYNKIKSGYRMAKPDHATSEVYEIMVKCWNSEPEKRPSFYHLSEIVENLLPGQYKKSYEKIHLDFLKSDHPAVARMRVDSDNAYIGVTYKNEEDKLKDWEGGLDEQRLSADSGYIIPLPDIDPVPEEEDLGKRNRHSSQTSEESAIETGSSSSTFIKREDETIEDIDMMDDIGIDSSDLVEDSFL
readout-label: Kd

Request: State its Kd: `CCN1CCN(c2ccc(Nc3ncnc(N(C)C(=O)Nc4c(Cl)c(OC)c(Cl)c(OC)c4Cl)n3)cc2)CC1`
Result: > 10 µM

###

Biological target: FGFR3(G697C) (Homo sapiens, UniProt P22607, G697C)
Sequence (P22607 23-806 G697C): as the sequence (P22607 23-806 K650E) above, with E628K, G675C counted along it
Test: Kinase binding assay (Kd), mutant FGFR3
readout-label: pKd
A value of pKd is the negative decimal logarithm of a concentration given in moles per litre.

Request: Tell me measured pKd for `CCN1CCN(c2ccc(Nc3ncnc(N(C)C(=O)Nc4c(Cl)c(OC)c(Cl)c(OC)c4Cl)n3)cc2)CC1` please.
Result: 6.41

###

Target: AKT2 (Homo sapiens, UniProt P31751)
Sequence (P31751 whole entry): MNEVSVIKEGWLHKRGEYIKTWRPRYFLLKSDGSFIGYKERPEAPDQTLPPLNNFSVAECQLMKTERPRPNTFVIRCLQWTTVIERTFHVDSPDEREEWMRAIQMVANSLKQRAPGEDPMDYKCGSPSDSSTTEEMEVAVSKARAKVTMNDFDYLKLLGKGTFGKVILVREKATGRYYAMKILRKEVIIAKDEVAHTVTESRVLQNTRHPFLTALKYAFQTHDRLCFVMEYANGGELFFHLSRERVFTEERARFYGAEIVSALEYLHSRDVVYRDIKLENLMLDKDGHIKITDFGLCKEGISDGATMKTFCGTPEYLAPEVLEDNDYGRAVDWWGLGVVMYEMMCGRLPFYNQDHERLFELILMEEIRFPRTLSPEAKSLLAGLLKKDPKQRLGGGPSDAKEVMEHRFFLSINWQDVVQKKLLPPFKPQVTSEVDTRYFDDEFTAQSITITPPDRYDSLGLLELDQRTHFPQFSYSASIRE
pKd: −log10 of the molar value.
readout-label: pKd

Request: Name the recorded pKd of CCN1CCN(c2ccc(Nc3ncnc(N(C)C(=O)Nc4c(Cl)c(OC)c(Cl)c(OC)c4Cl)n3)cc2)CC1 [MPT0L145] , assay system AKT2 (Homo sapiens, UniProt P31751).
Result: < 5.00

###

Target: PIM3 (Homo sapiens, UniProt Q86V86)
readout-label: Kd

Request: Please give measured Kd of the following entry: `CCN1CCN(c2ccc(Nc3ncnc(N(C)C(=O)Nc4c(Cl)c(OC)c(Cl)c(OC)c4Cl)n3)cc2)CC1`
Result: > 10 µM

###

Listed here: items and their measured Viability (% of control cells) RT-112 (10 uM) Mean.
Tested on: RT-112
Experiment: MTT assay, cell viability
Format: cell-based
Settings: RT-112, 10 uM, 72 hours

Please review the entries below; each comes with its answer.
compound | subject-of-test | obs-value
COc1c(Cl)c(NC(=O)N(C)c2cc(-c3cccnc3)ncn2)c(Cl)c(OC)c1Cl [MPT0L147] | RT-112 | 85.0 % of control cells
COc1c(Cl)c(NC(=O)N(C)c2cc(-c3ccccc3)ncn2)c(Cl)c(OC)c1Cl [MPT0L149] | RT-112 | 82.3 % of control cells
CCN1CCN(c2ccc(Nc3cc(N(C)C(=O)Nc4c(Cl)c(OC)c(Cl)c(OC)c4Cl)nc(-c4ccccc4)n3)cc2)CC1 [MPT0L146] | RT-112 | 29.7 % of control cells
CCN1CCN(c2ccc(-c3cc(N(C)C(=O)Nc4c(Cl)c(OC)c(Cl)c(OC)c4Cl)ncn3)cc2)CC1 [MPT0L182] | RT-112 | 8.6 % of control cells
COc1c(Cl)c(NC(=O)N(C)c2cc(-c3ccc(C#N)cc3)ncn2)c(Cl)c(OC)c1Cl [MPT0L152] | RT-112 | 55.3 % of control cells

Request: Fill in Viability (% of control cells) RT-112 (10 uM) Mean for record COc1c(Cl)c(NC(=O)N(C)c2cc(-c3ccco3)ncn2)c(Cl)c(OC)c1Cl [MPT0L154]
Result: 76.1 % of control cells

Request: Indicate the recorded Viability (% of control cells) RT-112 (10 uM) Mean value for this compound: CCN1CCN(c2ccc(Nc3nc(Cl)nc(N(C)C(=O)Nc4c(Cl)c(OC)c(Cl)c(OC)c4Cl)n3)cc2)CC1 [MPT0L183]
Result: 3.4 % of control cells

Request: Give the measured Viability (% of control cells) RT-112 (10 uM) Mean for COc1ccc(-c2cc(N(C)C(=O)Nc3c(Cl)c(OC)c(Cl)c(OC)c3Cl)ncn2)cc1 [MPT0L153]
Result: 43.0 % of control cells

Request: Identify measured Viability (% of control cells) RT-112 (10 uM) Mean corresponding to COc1c(Cl)c(NC(=O)N(C)c2cc(-c3cccc([N+](=O)[O-])c3)ncn2)c(Cl)c(OC)c1Cl [MPT0L151]
Result: 63.8 % of control cells

Request: Quickly give me recorded Viability (% of control cells) RT-112 (10 uM) Mean for CCN1CCN(c2ccc(Nc3cc(N(C)C(=O)Nc4c(Cl)c(OC)c(Cl)c(OC)c4Cl)ncn3)cc2)CC1 [MPT0L090]
Result: 12.7 % of control cells

Request: Read the entry CCN1CCN(c2ccc(Nc3ncnc(N(C)C(=O)Nc4c(Cl)c(OC)c(Cl)c(OC)c4Cl)n3)cc2)CC1 [MPT0L145] and write its reported Viability (% of control cells) RT-112 (10 uM) Mean.
Result: 8.5 % of control cells

###

Sequence of the target: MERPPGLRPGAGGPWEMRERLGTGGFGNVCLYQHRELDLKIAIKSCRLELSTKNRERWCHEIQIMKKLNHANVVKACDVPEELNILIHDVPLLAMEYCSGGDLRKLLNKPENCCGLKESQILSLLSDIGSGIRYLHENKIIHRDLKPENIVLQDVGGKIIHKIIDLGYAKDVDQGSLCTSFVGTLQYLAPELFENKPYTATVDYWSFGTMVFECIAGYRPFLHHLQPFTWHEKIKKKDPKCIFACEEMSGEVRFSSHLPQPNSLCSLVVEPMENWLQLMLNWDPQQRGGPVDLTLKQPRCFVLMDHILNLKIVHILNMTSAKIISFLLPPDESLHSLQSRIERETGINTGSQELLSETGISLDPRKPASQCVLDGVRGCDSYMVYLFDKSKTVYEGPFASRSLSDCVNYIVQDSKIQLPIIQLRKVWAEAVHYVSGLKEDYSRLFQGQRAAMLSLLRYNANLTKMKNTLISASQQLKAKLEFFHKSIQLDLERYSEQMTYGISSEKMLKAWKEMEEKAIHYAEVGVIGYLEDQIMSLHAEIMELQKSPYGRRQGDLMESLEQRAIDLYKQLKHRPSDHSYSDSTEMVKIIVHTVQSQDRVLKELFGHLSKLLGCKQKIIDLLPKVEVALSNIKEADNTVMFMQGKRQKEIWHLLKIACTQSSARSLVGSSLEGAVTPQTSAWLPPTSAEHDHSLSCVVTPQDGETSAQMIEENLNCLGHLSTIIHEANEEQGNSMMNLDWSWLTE
readout-label: Kd

Request: Consider the compound `CCN1CCN(c2ccc(Nc3ncnc(N(C)C(=O)Nc4c(Cl)c(OC)c(Cl)c(OC)c4Cl)n3)cc2)CC1` and give its recorded Kd.
Result: > 10 µM

###

Molecular target: PIK3CA (Homo sapiens, UniProt P42336)
Sequence (P42336 whole entry): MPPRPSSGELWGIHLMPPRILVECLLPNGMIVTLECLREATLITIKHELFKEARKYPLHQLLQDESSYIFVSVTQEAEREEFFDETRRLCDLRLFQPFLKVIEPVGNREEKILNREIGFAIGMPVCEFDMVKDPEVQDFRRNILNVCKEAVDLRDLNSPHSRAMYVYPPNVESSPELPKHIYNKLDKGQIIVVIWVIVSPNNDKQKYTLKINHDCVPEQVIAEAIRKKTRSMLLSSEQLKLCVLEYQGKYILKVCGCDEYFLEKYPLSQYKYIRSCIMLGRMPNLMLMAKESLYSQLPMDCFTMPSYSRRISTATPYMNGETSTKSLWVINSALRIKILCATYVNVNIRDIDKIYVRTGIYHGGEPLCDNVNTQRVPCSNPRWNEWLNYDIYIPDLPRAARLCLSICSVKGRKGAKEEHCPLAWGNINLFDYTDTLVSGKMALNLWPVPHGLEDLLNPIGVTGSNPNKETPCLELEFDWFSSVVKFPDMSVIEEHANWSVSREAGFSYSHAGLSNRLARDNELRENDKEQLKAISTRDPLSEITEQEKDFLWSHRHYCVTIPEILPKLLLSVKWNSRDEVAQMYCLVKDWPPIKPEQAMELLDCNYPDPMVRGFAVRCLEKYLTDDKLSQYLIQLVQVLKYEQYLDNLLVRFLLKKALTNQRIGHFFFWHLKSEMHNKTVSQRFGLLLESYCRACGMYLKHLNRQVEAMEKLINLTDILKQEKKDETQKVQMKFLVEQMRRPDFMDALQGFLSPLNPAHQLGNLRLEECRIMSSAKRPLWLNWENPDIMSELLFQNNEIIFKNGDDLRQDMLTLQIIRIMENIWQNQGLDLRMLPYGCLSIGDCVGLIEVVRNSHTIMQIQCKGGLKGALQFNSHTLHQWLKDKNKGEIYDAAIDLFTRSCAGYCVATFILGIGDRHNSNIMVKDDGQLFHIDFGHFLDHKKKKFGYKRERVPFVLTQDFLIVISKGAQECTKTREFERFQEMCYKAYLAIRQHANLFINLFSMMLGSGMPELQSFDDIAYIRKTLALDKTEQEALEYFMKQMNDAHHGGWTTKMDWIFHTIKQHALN
pKd: −log10 of the molar value.
readout-label: pKd

Request: Report measured pKd on PIK3CA (Homo sapiens, UniProt P42336); entry: `CCN1CCN(c2ccc(Nc3ncnc(N(C)C(=O)Nc4c(Cl)c(OC)c(Cl)c(OC)c4Cl)n3)cc2)CC1`
Result: < 5.00

###

System: MDA-MB-231
Experiment: MTT assay, cell viability
Type: cell-based
Details: Homo sapiens; MDA-MB-231, Breast, 72 hours; read-out: IC50 (μM, Mean ± SD)
readout-label: IC50 (µM)
Numbers only; they are read as µM.

Request: Item `CCN1CCN(c2ccc(Nc3cc(N(C)C(=O)Nc4c(Cl)c(OC)cc(OC)c4Cl)ncn3)cc2)CC1` : provide IC50
Result: 4.27

###

System: FUDDLS
Assay: MTT assay, cell viability
Format: cell-based
Conditions: Sarcoma, 72 hours, read-out: IC50 (μM, Mean ± SD)
readout-label: IC50 (µM)
Supply the numeric figure in µM, leaving out any unit text.

Request: Provide IC50, system FUDDLS, entry CCN1CCN(c2ccc(Nc3cc(N(C)C(=O)Nc4c(Cl)c(OC)cc(OC)c4Cl)ncn3)cc2)CC1 [BGJ-398]
Result: 1.45

###

System: SNU-16
Assay: MTT assay, cell viability
Format: cell-based
Conditions: 72 hours
Reported Viability (% of control cells) SNU-16 (5 uM) Mean values follow for various compounds

Please review the following examples before continuing.
molecule | obs-value
COc1c(Cl)c(NC(=O)N(C)c2cc(-c3ccc(Cl)cc3)ncn2)c(Cl)c(OC)c1Cl | 76.7 % of control cells
CCN1CCN(c2ccc(-c3cc(N(C)C(=O)Nc4c(Cl)c(OC)c(Cl)c(OC)c4Cl)ncn3)cc2)CC1 | 63.2 % of control cells
COc1c(Cl)c(NC(=O)N(C)c2cc(-c3ccc(F)cc3)ncn2)c(Cl)c(OC)c1Cl | 80.5 % of control cells
CCN1CCN(c2ccc(Nc3nc(Cl)nc(N(C)C(=O)Nc4c(Cl)c(OC)c(Cl)c(OC)c4Cl)n3)cc2)CC1 | 28.2 % of control cells
CCN1CCN(c2ccc(Nc3ncnc(N(C)C(=O)Nc4c(Cl)c(OC)c(Cl)c(OC)c4Cl)n3)cc2)CC1 | 36.9 % of control cells
CCN1CCN(c2ccc(Nc3cc(N(C)C(=O)Nc4c(Cl)c(OC)c(Cl)c(OC)c4Cl)nc(-c4ccccc4)n3)cc2)CC1 | 83.4 % of control cells

Request: System SNU-16. Read-out Viability (% of control cells) SNU-16 (5 uM) Mean. Item `COc1ccc(-c2cc(N(C)C(=O)Nc3c(Cl)c(OC)c(Cl)c(OC)c3Cl)ncn2)cc1` . Report value.
Result: 76.2 % of control cells

Request: # return Viability (% of control cells) SNU-16 (5 uM) Mean of `CCN1CCN(c2ccc(Nc3cc(N(C)C(=O)Nc4c(Cl)c(OC)c(Cl)c(OC)c4Cl)ncn3)cc2)CC1` (system: SNU-16)
Result: 27.5 % of control cells
